# Test system: TAB109
# Protocol summary: qHTS profiling for inhibitors of Plasmodium falciparum proliferation (AID 504749); further: nearly all actives have a fitted effect of over 60% in size
# Stated conditions: P. falciparum in erythrocytes, SYBR Green DNA, 72 h; series mostly up to 28.7 µM
Inconclusive results are not listed. Calls of active or inactive are those of the source. The call rests on the fitted dose curve; in most records, active means well fitted inhibition curve with a large enough effect; inconclusive means small, poorly fitted or top-dose-only effect; inactive means flat fitted curve, though single readings scatter. Peptide text beside a SMILES is read from it.
Hi there, use one of these labels in your reply, thanks! Yes for active, No for inactive

Completed entries (count: 5):
Compound	Cat
CCCCC(C)(O)C/C=C/[C@H]1[C@H](O)CC(=O)[C@@H]1CCCCCCC(=O)OC (stereo not given in full)	No
CC(=O)N[C@@H](CC(=O)O)C(=O)N[C@@H](CCC(=O)O)C(=O)O (Ac-Asp-Glu-OH)	No
C[C@]12O[C@H](C[C@]1(O)CO)n1c3ccccc3c3c4c(c5c6ccccc6n2c5c31)CNC4=O	Yes
CCCCCCCCCCCCCC[n+]1ccc(C)cc1	Yes
CCCCCCCC(=O)O	No

Field: outcome | Entry: `O=C(O)CCC(=O)C(=O)O`
No

Field: outcome | Entry: `CCCC(=O)O[C@]1(C(=O)CCl)[C@H](C)C[C@@H]2[C@H]3CCC4=CC(=O)C=C[C@]4(C)[C@@]3(F)C(=O)C[C@@]21C`
Yes

Field: outcome | Entry: `CCCCC/C=C\C/C=C\CCCCCCCC(=O)O`
No

Field: outcome | Entry: C[C@@H]1CCC2[C@@H](C)[C@@H](O)O[C@@H]3O[C@@]4(C)CC[C@@H]1[C@@]23OO4 (stereo not given in full)
Yes

Field: outcome | Entry: `COc1ccc2c3c1O[C@H]1C[C@@H](O)C=C[C@@]31CCN(C)C2`
No

---

# System: Luciferin 4-monooxygenase (Photinus pyralis) (UniProt P08659)
# Sequence (P08659 whole entry, looked up): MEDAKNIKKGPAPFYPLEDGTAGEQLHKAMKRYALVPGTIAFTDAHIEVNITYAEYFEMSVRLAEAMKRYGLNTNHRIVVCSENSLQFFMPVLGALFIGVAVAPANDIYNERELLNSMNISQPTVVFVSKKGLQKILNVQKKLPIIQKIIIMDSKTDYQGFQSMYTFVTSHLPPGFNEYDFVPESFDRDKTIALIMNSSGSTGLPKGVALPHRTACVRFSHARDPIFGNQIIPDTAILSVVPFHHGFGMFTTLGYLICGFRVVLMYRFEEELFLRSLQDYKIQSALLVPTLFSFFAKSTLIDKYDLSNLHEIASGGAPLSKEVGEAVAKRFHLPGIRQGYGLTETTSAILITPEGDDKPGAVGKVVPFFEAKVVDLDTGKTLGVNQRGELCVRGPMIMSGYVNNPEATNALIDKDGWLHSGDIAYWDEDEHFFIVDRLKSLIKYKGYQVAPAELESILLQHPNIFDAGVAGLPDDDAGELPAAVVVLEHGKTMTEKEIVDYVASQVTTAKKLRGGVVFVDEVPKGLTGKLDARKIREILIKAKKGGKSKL
# Protocol summary: Biochemical firefly luciferase enzyme assay for NPC (AID 624030);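 further: purified P. pyralis luciferase at 10 nM with luciferin and ATP substrate; 0% = DMSO and -100% = full luciferase inhibition by PTC124 control; nearly all actives have a fitted effect of over 70% in size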
# Stated conditions: purified P. pyralis luciferase, luminescence, 5 min; series mostly up to 58.6 µM
Results filed as inconclusive are left out. Active and inactive are the calls of the source. Calls follow the shape of the dose curve; as a rule, active = well fitted inhibition curve with a large enough effect; inconclusive = small, poorly fitted or top-dose-only effect; inactive = flat fitted curve, though single readings scatter.
Hi there, use one of these labels in your reply, thanks! active, inactive

Compound	Cat
C=CCSSSCC=C	inactive
NC1C2CN(c3nc4c(cc3F)c(=O)c(C(=O)O)cn4-c3ccc(F)cc3F)CC12 (stereo unspecified)	inactive
COCC(=O)Nc1cc(Sc2ccccc2)ccc1N=C(NC(=O)OC)NC(=O)OC	inactive

Here is another compound to look at.
Field: outcome | Entry: `CCCCCCOc1ccc(C(=N)N(CCCC)CCCC)c2ccccc12`
inactive

---

# Tested on: CAOV3
# Protocol summary: Primary qHTS to identify gynecologic anti-cancer compounds using libraries of approved drugs and bioactive compounds (AID 1345084); further: on the % scale 0 is the no-effect control and ±100 the full control effect; nearly all actives have a fitted effect of over 55% in size
# Stated conditions: Gynecologic cancer cell panel viability, ATPlite luminescence, 48 h; series mostly up to 57.5 µM
# Excerpt: National Center for Advancing Translational Sciences [NCATS] Assay Overview: Chemotherapeutic drug responses vary from cancer to cancer and from patient to patient. […] ATPlite is a luminescence based assay reliant on the conversion of a luciferase substrate to light in the presence of ATP. As a cytotoxic compound will suppress growth and decrease the number of cells, the concentration of ATP will decrease, and less light signal will be detected in the well. […]
Records with an inconclusive call do not appear. Calls of active or inactive are those of the source. Calls come from the whole dose curve; as a rule, active = well fitted cell-killing curve with a large enough effect; inconclusive = small, poorly fitted or top-dose-only effect, or effect the other way; inactive = flat fitted curve, though single readings scatter.
Reported property: activity change, negative = cytotoxicity

Below, 5 compounds whose answers are already recorded.
Compound	activity change, negative = cytotoxicity
Cc1ccc(Sc2cncc3sc(C(N)=O)cc23)cc1	inactive
CC[C@H]1OC(=O)[C@H](C)[C@@H](OC2C[C@@](C)(OC)[C@@H](O)[C@H](C)O2)[C@H](C)[C@@H](OC2O[C@H](C)C[C@H](NC)[C@H]2O)[C@](C)(O)C[C@@H](C)CN(C)[C@H](C)[C@@H](O)[C@]1(C)O (stereo not given in full)	inactive
CC1(C)NC2N(C1=O)c1ccccc1C2(O)CC(C(=O)O)n1cnc2ccccc2c1=O (stereo not given)	inactive
Cc1cc(O)c(C(C)C)cc1O[C@@H]1O[C@H](CO)[C@@H](O)[C@H](O)[C@H]1O	inactive
CC(=O)O[C@@H]1[C@H]2[C@@H](OC(=O)c3ccccc3)[C@@H](C)C[C@]2(O)[C@H](OC(C)=O)[C@@]2(C)[C@@H]3CC(C)(C)C(=O)[C@]3(OC(C)=O)C[C@@]12C	inactive

Reported activity change, negative = cytotoxicity, compound `CN1C(=O)c2ccccc2-n2c(nc3ccccc3c2=O)[C@@]12O[C@H]2c1ccccc1` : ____
inactive

Reported activity change, negative = cytotoxicity, compound `C[C@H]1CN(C[C@H](Cc2ccccc2)C(=O)NCC(=O)O)CC[C@@]1(C)c1cccc(O)c1` : ____
inactive

Reported activity change, negative = cytotoxicity, compound CC1(CO)CC[C@]2(C(=O)O[C@@H]3O[C@H](CO)[C@@H](O)[C@H](O)[C@H]3O)CC[C@]3(C)C(=CCC4[C@@]5(C)CC[C@H](O[C@@H]6O[C@H](C(=O)O)[C@@H](O)[C@H](O)[C@H]6O)C(C)(C)C5CC[C@]43C)C2C1 (stereo not given in full) : ____
12.9% [at 11.6 µM] (inactive)

Reported activity change, negative = cytotoxicity, compound CC1CCC2(C(=O)OC3OC(CO)C(O)C(O)C3O)CCC3(C(=O)O)C(=CCC4C5(C)CCC(OC6OC(C)C(O)C(O)C6O)C(C)(C)C5CCC43C)C2C1C (stereo not given) : ____
inactive

Reported activity change, negative = cytotoxicity, compound CC(=O)O[C@H]1[C@H](Oc2ccccc2COC(=O)C2(O)C=CCCC2=O)O[C@H](CO)[C@@H](O)[C@@H]1O (stereo not given in full) : ____
inactive
